assay: Human pregnane X receptor (PXR) small molecule agonists, qHTS cell viability counter screen (AID 1346977); conditions: PXR-Luc HepG2 viability, CellTiter-Fluor, 24 h; series mostly up to 92.4 µM; note: nearly all actives have a fitted effect of over 50% in size
Inconclusive results are not listed. Active and inactive are the calls of the source. Calls come from the whole dose curve; as a rule, active = well fitted cell-killing curve with a large enough effect in the repeat runs; inconclusive = weak or mixed curves, or effect the other way; inactive = flat fitted curve, though single readings scatter.
Please reply with one of these outcomes: active, inactive

Ask: Entry "Cc1ccc2c(ccc3ccccc32)c1" : call = ?
Result: inactive

Ask: Entry "CC(=O)[C@@]1(O)CC[C@H]2[C@@H]3C[C@H](C)C4=CC(=O)CC[C@]4(C)[C@H]3CC[C@@]21C" : call = ?
Result: inactive

Ask: Entry "CCCCOC(=O)/C=C\C(=O)OCCCC" : call = ?
Result: inactive

Ask: Entry "CCCCCCCCCCCCC(=O)O" : call = ?
Result: inactive

Ask: Entry "C=Cc1c(C)c2cc3[nH]c(cc4nc(cc5nc(cc1[nH]2)C(C)=C5CCC(=O)O)C(CCC(=O)O)=C4C)c(C)c3C=C" : call = ?
Result: active

Ask: Entry "CC(=O)Nc1ccc(/C=N/NC(N)=S)cc1" : call = ?
Result: inactive

Ask: Entry CC(=O)/C=C/C1C(C)=CCCC1(C)C (configuration not stated) : call = ?
Result: inactive

Ask: Entry Cn1c(=O)c2c(ncn2CC(O)CO)n(C)c1=O (configuration not stated) : call = ?
Result: inactive

Ask: Entry CC1CCc2cc(F)cc3c(=O)c(C(=O)O)cn1c23 (configuration not stated) : call = ?
Result: inactive

Ask: Entry CC(=O)/C(C)=C/C1C(C)=CCCC1(C)C (configuration not stated) : call = ?
Result: inactive

Ask: Entry "CCCCOc1cc(C(=O)OCCN(CC)CC)ccc1N" : call = ?
Result: inactive

Ask: Entry "C=CC[N+]1([C@H]2C[C@H]3[C@@H]4CC[C@H]5C[C@H](OC(C)=O)[C@@H](N6CCCCC6)C[C@]5(C)[C@H]4CC[C@]3(C)[C@H]2OC(=O)CC)CCCCC1" : call = ?
Result: inactive

Ask: Entry "CC(C)(C)c1cc(CO)cc(C(C)(C)C)c1O" : call = ?
Result: inactive

Ask: Entry "CCN(CC)CCOc1ccc2c(c1)C(=O)c1cc(OCCN(CC)CC)ccc1-2" : call = ?
Result: active

Ask: Entry "CC(=O)O[C@@H]1C(=O)O[C@@H]2[C@H]1OC(=O)[C@@H]2OC(C)=O" : call = ?
Result: inactive

Ask: Entry "Cc1cc(CC(=O)O)c(C)n1-c1ccc(Cl)cc1" : call = ?
Result: inactive

Ask: Entry "CC(=O)CC(=O)c1ccccc1" : call = ?
Result: inactive

====

target: Estrogen receptor (Homo sapiens); assay: qHTS assay to identify small molecule antagonists of the estrogen receptor alpha (ER-alpha) signaling pathway (AID 743069); settings: HEK293 ER-alpha-UAS-bla, beta-lactamase ratio, antagonist mode; series mostly up to 69.4 µM
Active and inactive are the calls of the source. Calls follow the shape of the dose curve; as a rule, active = well fitted curve in the direction sought with a large enough effect in the signal ratio in the repeat runs (not every such curve was filed as active); inconclusive = weak or mixed curves, or effect the other way; inactive = no such curve, though single readings can be large or run the other way; the % refers to the signal ratio.
Please reply with one of these outcomes: true (active), false (inactive)

Ask: Entry "CC(=O)SCc1ccco1" : call = ?
Result: false

Ask: Entry "CCCCCCc1ccc(N)cc1" : call = ?
Result: true

Ask: Entry "CC[C@H](C)[C@H](N)C(=O)O" : call = ?
Result: false

Ask: Entry "c1ccc(OCc2ccc(CCCN3CCOCC3)cc2)cc1" : call = ?
Result: false

Ask: Entry "Cc1cc(O)ccc1N" : call = ?
Result: false

Ask: Entry "COCCOCCOCCOCCOC" : call = ?
Result: false

Ask: Entry "O=C1[C@H](CC[C@H](O)c2ccc(F)cc2)[C@@H](c2ccc(O)cc2)N1c1ccc(F)cc1" : call = ?
Result: false

Ask: Entry "CC[C@@H]1C[C@H](N(Cc2cc(C(F)(F)F)cc(C(F)(F)F)c2)C(C)=O)c2cc(C(F)(F)F)ccc2N1C(=O)OC(C)C" : call = ?
Result: false

Ask: Entry "CN1CCC(OC(c2ccccc2)c2ccccc2)CC1" : call = ?
Result: false

Ask: Entry "CCCCCCCCCC(=O)OCC" : call = ?
Result: false

Ask: Entry CC(C)NCC(O)COc1ccc(CC(N)=O)cc1 (stereo not drawn) : call = ?
Result: false

Ask: Entry "CCCc1ccccc1" : call = ?
Result: false

Ask: Entry "CCCOc1ccc2nc(NC(=O)OC)[nH]c2c1" : call = ?
Result: false

The measurements presented in this section are drawn from PubChem BioAssay (Tox21).
